Test: Systemic pharmacokinetics and total colon tissue distribution after single oral administration in mice
Format: in vivo, male C57BL/6 mice
Conditions: male, C57BL/6, mouse, oral 10 mg/kg, plasma, 1 h, read-out: Mean plasma concentration
Procedure: Studies were conducted by Sai Life Sciences (Hinjewadi, Pune, India) to investigate the systemic pharmacokinetics and total colon tissue distribution of compounds of the invention following a single oral administration in male C57BL/6 mice. A group of twenty four male mice were administered with a solution of test compound formulated at a dose of 10 mg/10 mL/kg in aqueous hydroxypropyl-β-cyclodextrin (20% w/v in water). […]

compound	concentration at 1 h / ng/mL
CCc1cc(O)c(F)cc1-c1ccc2c(-c3nc4c([nH]3)CCN(C(=O)c3cnc(N(C)CCN5CCCC5=O)cn3)C4)n[nH]c2c1 [Example 2(k)]	2.6

* * *

AUC(0-t) for assorted compounds
Experiment: Systemic pharmacokinetics and total colon tissue distribution after single oral administration in mice
Format: in vivo, male C57BL/6 mice
Details: male, C57BL/6, mouse, oral 10 mg/kg, plasma, read-out: AUC0-24 h P (plasma)
measurement.label: AUC(0-t) (ng·h/mL)

compound	test.result
CCc1cc(O)c(F)cc1-c1ccc2c(-c3nc4c([nH]3)CCN(C(=O)c3cnc(N(C)CCN5CCCC5=O)cn3)C4)n[nH]c2c1	20
CCc1cc(O)c(F)cc1-c1ccc2c(-c3nc4c([nH]3)CCN(C(=O)c3cnc(N5CCCCC5)cn3)C4)n[nH]c2c1 [Reference Compound, reference compound]	368

* * *

Assay: Systemic pharmacokinetics and total colon tissue distribution after single oral administration in mice
Format: in vivo, male C57BL/6 mice
Settings: male, C57BL/6, mouse, oral 10 mg/kg, plasma, 2 h, read-out: Mean plasma concentration

mol	result.units	concentration at 2 h
CCc1cc(O)c(F)cc1-c1ccc2c(-c3nc4c([nH]3)CCN(C(=O)c3cnc(N(C)CCN5CCCC5=O)cn3)C4)n[nH]c2c1	ng/mL	1.9
